- Tested on: LoVo MDR cells
- experimentalDetails: MTT cytotoxicity assay, 72 h, LoVo MDR (multidrug resistant)
- Type: cell-based, human
- assayContext: Homo sapiens, LoVo, MTT test, mean ± SD
reportedMetric: IC50 (µM)
// units = µM; emit number, no label

Sample COc1cccc2c1C(=O)c1c(O)c3c(c(O)c1C2=O)C[C@@](O)(C(=O)CO)C[C@@H]3O[C@H]1C[C@H](N)[C@H](O)[C@H](C)O1 [doxorubicin, reference compound] — what was its IC50?
19.4

---

- Test system: human colon carcinoma cells HCT-15
- experimentalDetails: MTT cytotoxicity assay, 72 h, HCT-15
- Format: cell-based
- assayContext: MTT test, mean ± SD
Listing: pIC50 of selected molecules
pIC50 here is simply -log10 of the concentration when that concentration is written in mol/L.

These solved cases illustrate the format of a correct answer.
molecule	targetEntity	pIC50
O=C1[O][Pt]2([NH][C@@H]3CCCC[C@H]3[NH]2)[O]C1=O [oxaliplatin, reference compound]	human colon carcinoma cells HCT-15	5.89
F[B-](F)(F)F.O=Cc1ccccc1P(c1ccccc1)c1ccccc1.O=Cc1ccccc1P(c1ccccc1)c1ccccc1.[Cu+]	human colon carcinoma cells HCT-15	6.10
N.N.[Cl][Pt][Cl] [cisplatin, cis-diamminedichloroplatinum(II), reference compound]	human colon carcinoma cells HCT-15	4.82

The record that follows has no pIC50 shown yet.
I'd like to know its pIC50. The molecule in question is F[B-](F)(F)F.O=C(O)c1ccccc1P(c1ccccc1)c1ccccc1.O=C(O)c1ccccc1P(c1ccccc1)c1ccccc1.[Cu+]
5.74

---

- Tested on: human ovarian cancer cells 2008
- experimentalDetails: MTT cytotoxicity assay, 72 h, 2008
- assayContext: read-out: IC50 2008, MTT test, mean ± SD, Table 2
Define the label as Criterion met when IC50 is strictly less than 1000 nM and as Criterion not met in all remaining cases.

compound	category
O=C1[O][Pt]2([NH][C@@H]3CCCC[C@H]3[NH]2)[O]C1=O [oxaliplatin, reference compound]	Criterion not met
COCOc1ccccc1P(c1ccccc1)c1ccccc1.COCOc1ccccc1P(c1ccccc1)c1ccccc1.F[B-](F)(F)F.[Cu+] [Compound 13]	Criterion not met
N.N.[Cl][Pt][Cl] [cisplatin, cis-diamminedichloroplatinum(II), reference compound]	Criterion not met
F[B-](F)(F)F.Oc1ccccc1P(c1ccccc1)c1ccccc1.Oc1ccccc1P(c1ccccc1)c1ccccc1.[Cu+] [Compound 12]	Criterion not met
COc1ccccc1P(c1ccccc1)c1ccccc1.COc1ccccc1P(c1ccccc1)c1ccccc1.F[B-](F)(F)F.[Cu+] [Compound 11]	Criterion met

We next turn to a different compound, shown below.
Does this compound meet the criterion IC50 < 1000 nM? F[B-](F)(F)F.O=S(=O)(O)c1ccccc1P(c1ccccc1)c1ccccc1.O=S(=O)(O)c1ccccc1P(c1ccccc1)c1ccccc1.[Cu+] [Compound 14]
Criterion met
